- measurementTarget: human FPTase (Homo sapiens, UniProt P49354+P49356)
- protocolDescription: In vitro inhibition of Ras farnesyl transferase (FPTase inhibition assay)
- conditionLabel: 30° C.; 650 nM Ras-CVLS, 100 nM farnesyl diphosphate; recombinant FPTase; read-out: IC50 for inhibitory activity against human FPTase
pIC50: −log10 of the molar value.
reportedProperty: pIC50

Return reported pIC50. Input compound: CCC12CCCCN(C1)C(=O)CCc1cncn1Cc1ccc(C#N)c(c1)Oc1cccc2c1 (racemic) [Example 1] ≥ 5.00
